Source: patent US20050054770A1

target: ER beta (Homo sapiens, UniProt Q92731); assay: competition binding assay against a model linear peptide sequence (estrogen receptor-coactivator interaction), ER beta; details: competition binding assay (Lilly Research Labs); read-out: Ki ER β
Sequence (Q92731 whole entry): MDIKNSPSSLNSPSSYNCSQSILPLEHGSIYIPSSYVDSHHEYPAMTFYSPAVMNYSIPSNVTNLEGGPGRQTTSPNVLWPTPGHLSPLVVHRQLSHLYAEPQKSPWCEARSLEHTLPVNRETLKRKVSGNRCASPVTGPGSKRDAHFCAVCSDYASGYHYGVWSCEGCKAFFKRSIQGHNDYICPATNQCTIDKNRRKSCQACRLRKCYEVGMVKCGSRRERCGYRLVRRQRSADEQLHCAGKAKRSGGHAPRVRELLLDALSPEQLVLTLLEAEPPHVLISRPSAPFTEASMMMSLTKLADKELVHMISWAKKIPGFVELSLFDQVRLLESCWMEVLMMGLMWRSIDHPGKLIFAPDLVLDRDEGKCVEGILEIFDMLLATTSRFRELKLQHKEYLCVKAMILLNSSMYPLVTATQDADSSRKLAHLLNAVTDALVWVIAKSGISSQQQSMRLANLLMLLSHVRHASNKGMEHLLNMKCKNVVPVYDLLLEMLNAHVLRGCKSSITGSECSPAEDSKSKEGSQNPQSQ
Positions of bridges follow the written chain, without caps; N, C: chain ends. Non-standard residues stand in square brackets, D forms with d. Residues, ends and D or L forms follow the SMILES beside them.
Overview of reported Ki across a group of molecules:
Numbers only here, please. The scale is µM.

Consider the reported Ki for these molecules:
molecule	target-entity	Ki / µM
CC[C@H](C)[C@H](NC(=O)[C@H](CCCCN)NC(=O)[C@@H](N)CCCCN)C(=O)N[C@@H](CC(C)C)C(=O)N[C@@H](Cc1c[nH]cn1)C(=O)N[C@@H](CCCNC(=N)N)C(=O)N[C@@H](CC(C)C)C(=O)N[C@@H](CC(C)C)C(=O)N[C@@H](CCC(N)=O)C(N)=O [AML-I-61/2] (H-KKILHRLLQ-NH2)	ER beta (Homo sapiens, UniProt Q92731)	2.8
CC[C@H](C)[C@@H]1NC(=O)[C@H](CC(C)C)NC(=O)[C@@H](NC(=O)[C@@H](N)CCCCN)CSSC[C@H](C(=O)N[C@@H](CCCNC(=N)N)C(=O)N[C@@H](CC(C)C)C(=O)N[C@@H](CC(C)C)C(=O)N[C@@H](CCC(N)=O)C(N)=O)NC1=O [AKG-I-59] (H-KCLI[dC]RLLQ-NH2; disulfide 2-5)	ER beta (Homo sapiens, UniProt Q92731)	17
CC[C@H](C)[C@@H]1NC(=O)[C@@H](NC(=O)[C@@H](N)CCCCN)CSSC[C@H](C(=O)N[C@@H](CCCNC(=N)N)C(=O)N[C@@H](CC(C)C)C(=O)N[C@@H](CC(C)C)C(=O)N[C@@H](CCC(N)=O)C(N)=O)NC(=O)[C@H](CC(C)C)NC1=O [AKG-I-60] (H-KCIL[dC]RLLQ-NH2; disulfide 2-5)	ER beta (Homo sapiens, UniProt Q92731)	7.2

We next turn to a different molecule, shown below.
Exercise: Complete the entry with Ki for CC[C@H](C)[C@@H]1NC(=O)[C@H](NC(=O)[C@H](N)CCCCN)CSSC[C@@H](C(=O)N[C@@H](CCCNC(=N)N)C(=O)N[C@@H](CC(C)C)C(=O)N[C@@H](CC(C)C)C(=O)N[C@@H](CCC(N)=O)C(N)=O)NC(=O)[C@H](CC(C)C)NC1=O [AKG-I-28] (H-[dK][dC]ILCRLLQ-NH2; disulfide 2-5)
Key: 1.9
